Sourced from PubChem BioAssay (EPA / NIEHS)

- PROTOCOL_NOTES: CEETOX_H295R_PROG: CeeTox H295R High-throughput Steroidogenesis Assay for Progesterone (PROG) (AID 2283442)
- CONDITION_INFO: actives raise or lower the signal
Activity calls are given as the source filed them. The calls were made as follows: active = hit-call score of the fitted dose curve at least 0.9, where 1 is the maximum; inactive = score below 0.9.
Labels: yes for active, no for inactive

INSERT INTO results (molecule, assigned_label) VALUES
  ('CC(C)(O)c1cnn2c(-c3ccc(F)c(-c4c(F)cccc4C#N)c3)cnc2n1', 'yes'),
  ('O=C(Nc1ccccc1)c1ccccc1I', 'yes'),
  ('c1ccc2c(c1)-c1cccc3cccc-2c13', 'yes'),
  ('Cc1ccc(N=C=O)cc1N=C=O', 'no'),
  ('COP(=S)(OC)SCN1C(=O)c2ccccc2C1=O', 'no'),
  ('Cc1cc(N=Nc2ccccc2C)ccc1N', 'yes'),
  ('CCCCCOC(=O)c1ccccc1C(=O)OCCCCC', 'no'),
  ('Nc1ccc(Cl)cc1N', 'yes'),
  ('Cc1ccc(N)c(N)c1', 'no'),
  ('O=[N+]([O-])c1ccc(Oc2ccc(Cl)cc2Cl)cc1', 'no'),
  ('[As]#[In]', 'no'),
  ('Nc1ccc(N=Nc2ccccc2)cc1', 'yes'),
  ('CCCCCCCCCCCCCN1CC(C)OC(C)C1 (configuration not stated)', 'yes'),
  ('c1ccc(NNc2ccccc2)cc1', 'no'),
  ('CC(C)(C)C(O)(CCc1ccc(Cl)cc1)Cn1cncn1 (configuration not stated)', 'yes'),
  ('O=C(Oc1ccc(Br)cc1)N1CCN2CCC1CC2', 'yes'),
  ('Cn1cc(-c2ccccc2)c(=O)c(-c2cccc(C(F)(F)F)c2)c1', 'no'),
  ('CCC(C)c1ccc(O)cc1 (configuration not stated)', 'no'),
  ('CCOC(=O)[C@]1(c2ccccc2)Oc2ccccc2[C@@H]1N', 'no'),
  ('O=P(OCCCl)(OCCCl)OCCCl', 'no'),
  ('Nc1ccc(Cc2ccc(N)cc2)cc1', 'yes'),
  ('CCOc1cccc(C2(N3CCN(c4ccccc4)CC3)CCC(C)CC2)c1 (configuration not stated)', 'yes');

* * *

- PROTOCOL_NOTES: APR_HepG2_CellCycleArrest_72hr: Apredica 72-hour HepG2 Assay for Cell Cycle Arrest (AID 2282914)
- CONDITION_INFO: high-content imaging, actives raise or lower the signal
The source made the active and inactive calls. Rule for the calls: active = hit-call score of the fitted dose curve at least 0.9, where 1 is the maximum; inactive = score below 0.9.
Classes used: 1 (yes) (active), 0 (no) (inactive)

INSERT INTO results (compound, assigned_label) VALUES
  ('C1=Cc2cccc3cccc1c23', '0 (no)'),
  ('CCN(CC)CCO', '0 (no)'),
  ('Nc1ccc([N+](=O)[O-])cc1', '0 (no)'),
  ('OCCCl', '0 (no)'),
  ('Nc1cc(Cl)cc(C(=O)O)c1Cl', '0 (no)'),
  ('O=C(N[C@H](c1ccccc1)[C@@H]1CN2CCC1CC2)c1c(Cl)ccc(C(F)(F)F)c1Cl', '1 (yes)'),
  ('N#CC(Br)Br', '0 (no)'),
  ('ClC1=C(Cl)C2(Cl)C3C(Cl)C=CC3C1(Cl)C2(Cl)Cl (stereo not drawn)', '1 (yes)');

* * *

- Read-out: Macrophage colony-stimulating factor (MCSF), CSF1 (gene 1435)
- PROTOCOL_NOTES: BSK_CASM3C_MCSF: BioMAP Diversity Plus: CASM3C Assay for Macrophage colony-stimulating factor (MCSF) Biomarker Activity (AID 2283044);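 also: M-CSF protein amount quantified by ELISA after 24 h exposure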
- CONDITION_INFO: primary human coronary artery smooth muscle cells; actives raise or lower the signal
Calls of active or inactive are those of the source. The calls were made as follows: active = hit-call score of the fitted dose curve at least 0.9, where 1 is the maximum; inactive = score below 0.9.
MEASUREMENT_NAME: AC50

INSERT INTO measurements (compound, measurement_name, result) VALUES
  ('O=C(Nc1ccccc1)c1ccccc1I', 'AC50', 'inactive'),
  ('Oc1ccccc1Cl', 'AC50', 'inactive'),
  ('COP(=S)(OC)SCN1C(=O)c2ccccc2C1=O', 'AC50', 'inactive'),
  ('OCCCl', 'AC50', 'inactive'),
  ('Cc1ccc([N+](=O)[O-])cc1', 'AC50', 'inactive'),
  ('CCCCCOC(=O)c1ccccc1C(=O)OCCCCC', 'AC50', 'inactive'),
  ('Clc1ccc(C(c2ccc(Cl)cc2)C(Cl)(Cl)Cl)cc1', 'AC50', '14.7 µM (active)'),
  ('CS(=O)(=O)NC(=O)c1cc(Oc2ccc(C(F)(F)F)cc2Cl)ccc1[N+](=O)[O-]', 'AC50', 'inactive'),
  ('ClC1=C(Cl)[C@]2(Cl)[C@H]3[C@H]([C@@H]4C=C[C@H]3C4)[C@@]1(Cl)C2(Cl)Cl', 'AC50', '29 µM (active)'),
  ('COc1cc(C=O)cc2c1[C@H](COC(N)=O)[C@]1(OC(C)=O)ON2C[C@H]2[C@@H]1N2C(C)=O', 'AC50', '1.3 µM (active)'),
  ('Clc1ccc(C(c2ccc(Cl)cc2)C(Cl)Cl)cc1', 'AC50', '15.2 µM (active)'),
  ('O=P(OCCCl)(OCCCl)OCCCl', 'AC50', 'inactive'),
  ('c1ccc2c(c1)-c1cccc3cccc-2c13', 'AC50', 'inactive'),
  ('Cc1ccc(N=C=O)cc1N=C=O', 'AC50', 'inactive'),
  ('CC(C)(OOC(C)(C)c1ccccc1)c1ccccc1', 'AC50', 'inactive'),
  ('Nc1ccc([N+](=O)[O-])cc1', 'AC50', 'inactive'),
  ('CCCCC(CC)COC(=O)c1ccc(C(=O)OCC(CC)CCCC)c(C(=O)OCC(CC)CCCC)c1 (centres undefined)', 'AC50', 'inactive'),
  ('Cc1cc(N=Nc2ccccc2C)ccc1N', 'AC50', 'inactive'),
  ('CCCSC(=O)N(CCC)CCC', 'AC50', 'inactive'),
  ('N#CC(Br)Br', 'AC50', 'inactive'),
  ('Clc1ccc(Cl)c(Cl)c1', 'AC50', 'inactive'),
  ('CC(C)(C)C(O)(CCc1ccc(Cl)cc1)Cn1cncn1 (centres undefined)', 'AC50', 'inactive'),
  ('OCCCBr', 'AC50', 'inactive'),
  ('Cc1cccc(N)c1N', 'AC50', '3.73 µM (active)'),
  ('O=Cc1ccco1', 'AC50', 'inactive'),
  ('CCN(CC)CCO', 'AC50', 'inactive'),
  ('Cc1ccc(N)c(N)c1', 'AC50', 'inactive'),
  ('Nc1ccc(N=Nc2ccccc2)cc1', 'AC50', 'inactive'),
  ('O=[N+]([O-])c1ccc(Oc2ccc(Cl)cc2Cl)cc1', 'AC50', 'inactive');
